Recorded pIC50 for the following compounds
target-desc: UniProt O42275
Sequence (O42275 whole entry): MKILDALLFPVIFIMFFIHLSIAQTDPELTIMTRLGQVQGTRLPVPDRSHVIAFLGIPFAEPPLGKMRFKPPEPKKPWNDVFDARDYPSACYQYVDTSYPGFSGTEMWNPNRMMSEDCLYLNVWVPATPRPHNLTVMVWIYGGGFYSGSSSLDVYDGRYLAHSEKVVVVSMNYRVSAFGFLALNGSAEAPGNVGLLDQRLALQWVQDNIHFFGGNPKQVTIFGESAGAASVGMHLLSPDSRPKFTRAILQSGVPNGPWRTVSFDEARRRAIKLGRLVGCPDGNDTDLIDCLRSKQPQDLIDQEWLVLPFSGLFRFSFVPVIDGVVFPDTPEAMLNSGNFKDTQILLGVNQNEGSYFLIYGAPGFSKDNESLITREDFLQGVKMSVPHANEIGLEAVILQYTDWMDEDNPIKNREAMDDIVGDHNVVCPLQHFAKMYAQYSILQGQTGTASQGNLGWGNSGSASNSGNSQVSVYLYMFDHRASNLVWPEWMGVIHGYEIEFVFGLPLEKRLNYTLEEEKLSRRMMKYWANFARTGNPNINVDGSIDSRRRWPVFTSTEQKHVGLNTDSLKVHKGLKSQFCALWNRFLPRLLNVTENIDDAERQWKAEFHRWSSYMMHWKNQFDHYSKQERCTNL
pIC50: −log10 of the molar value.

Past entries and their recorded results:
compound | pIC50
COc1ccc(-c2cc3ccc(OCCCCn4cc(CNC(=O)CCCCC5CCSS5)nn4)cc3oc2=O)cc1 (centres undefined) | < 4.00
O=C(CCCCC1CCSS1)NCc1cn(CCCCCOc2ccc3cc(-c4ccc(Cl)c(Cl)c4)c(=O)oc3c2)nn1 (centres undefined) | < 4.00
O=C(CCCCC1CCSS1)NCc1cn(CCCCOc2ccc3cc(-c4ccccc4)c(=O)oc3c2)nn1 (centres undefined) | < 4.00
O=C(CCCCC1CCSS1)NCc1cn(CCCCCOc2ccc3cc(-c4ccccc4)c(=O)oc3c2)nn1 (centres undefined) | < 4.00
Cc1cc(=O)oc2cc(OCCCCCn3cc(CNC(=O)CCCCC4CCSS4)nn3)ccc12 (centres undefined) | < 4.00

Result for O=C(CCCCC1CCSS1)NCc1cn(CCCCOc2ccc3cc(-c4ccc(Br)cc4)c(=O)oc3c2)nn1 (centres undefined) , tested on UniProt O42275, pIC50: < 4.00

Considering O=C(CCCCC1CCSS1)NCc1cn(CCCOc2ccc3ccc(=O)oc3c2)nn1 (centres undefined) , its pIC50 with UniProt O42275 was recorded as 4.18

Per the reported UniProt O42275 data, COc1ccc(-c2cc3ccc(OCCCn4cc(CNC(=O)CCCCC5CCSS5)nn4)cc3oc2=O)cc1OC (centres undefined) has pIC50 of 4.79

Observed pIC50, UniProt O42275, O=C(CCCCC1CCSS1)NCc1cn(CCCOc2ccc3cc(-c4ccc(Cl)cc4)c(=O)oc3c2)nn1 (centres undefined) : < 4.00
